- System under test: cGMP-specific 3',5'-cyclic phosphodiesterase (Homo sapiens, UniProt O76074)
- Experimental details: DRUGMATRIX: Phosphodiesterase PDE5 enzyme inhibition (substrate: [3H]cGMP + cGMP)
- Type: tissue-based
- Stated conditions: platelet; Not Active = under 50% inhibition at 10 µM

{"Molecule": "CC[C@@]1(O)C[C@H](O[C@H]2C[C@H](N(C)C)[C@H](O[C@H]3C[C@H](O)[C@H](O[C@H]4CCC(=O)[C@H](C)O4)[C@H](C)O3)[C@H](C)O2)c2c(cc3c(c2O)C(=O)c2c(O)cccc2C3=O)[C@H]1C(=O)OC [ACLARUBICIN]", "IC50": "Not Active"}
{"Molecule": "Cc1c(C)c2c(c(C)c1O)CC[C@@](C)(CCC[C@H](C)CCC[C@H](C)CCCC(C)C)O2 [ALPHA-TOCOPHEROL]", "IC50": "Not Active"}
{"Molecule": "Cc1ccc(N(CC2=NCCN2)c2cccc(O)c2)cc1 [PHENTOLAMINE]", "IC50": "Not Active"}

---

- System under test: Neuropeptide Y receptor type 2 (Homo sapiens); also: in other assays of this panel Not Active means under 50% inhibition at 10 µM
- Sequence (P49146 whole entry): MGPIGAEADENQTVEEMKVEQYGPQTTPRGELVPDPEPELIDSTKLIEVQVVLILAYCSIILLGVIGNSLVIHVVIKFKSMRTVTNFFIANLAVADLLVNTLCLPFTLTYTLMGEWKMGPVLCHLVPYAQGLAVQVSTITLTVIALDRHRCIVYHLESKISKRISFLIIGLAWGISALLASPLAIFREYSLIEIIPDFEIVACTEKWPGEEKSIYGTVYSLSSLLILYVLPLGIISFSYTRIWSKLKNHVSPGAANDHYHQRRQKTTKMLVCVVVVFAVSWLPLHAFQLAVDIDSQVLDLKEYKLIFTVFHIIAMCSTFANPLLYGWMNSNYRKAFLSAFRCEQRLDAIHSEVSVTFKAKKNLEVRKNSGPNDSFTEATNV
- Type: cell membranes, Membrane
- Stated conditions: kan-ts

{"Compound": "C[C@]12CC[C@@H]3c4ccc(O)cc4CC[C@H]3[C@@H]1CCC2=O [ESTRONE]", "IC50": "Not Active"}
{"Compound": "CC[C@@]1(O)C[C@H](O[C@H]2C[C@H](N(C)C)[C@H](O[C@H]3C[C@H](O)[C@H](O[C@H]4CCC(=O)[C@H](C)O4)[C@H](C)O3)[C@H](C)O2)c2c(cc3c(c2O)C(=O)c2c(O)cccc2C3=O)[C@H]1C(=O)OC [ACLARUBICIN]", "IC50": "Not Active"}
{"Compound": "CCOc1ccc(NC(C)=O)cc1 [PHENACETIN]", "IC50": "Not Active"}

---

- System under test: Cytochrome P450 2E1 (Homo sapiens); also: in other assays of this panel Not Active means under 50% inhibition at 10 µM
- Sequence (P05181 whole entry): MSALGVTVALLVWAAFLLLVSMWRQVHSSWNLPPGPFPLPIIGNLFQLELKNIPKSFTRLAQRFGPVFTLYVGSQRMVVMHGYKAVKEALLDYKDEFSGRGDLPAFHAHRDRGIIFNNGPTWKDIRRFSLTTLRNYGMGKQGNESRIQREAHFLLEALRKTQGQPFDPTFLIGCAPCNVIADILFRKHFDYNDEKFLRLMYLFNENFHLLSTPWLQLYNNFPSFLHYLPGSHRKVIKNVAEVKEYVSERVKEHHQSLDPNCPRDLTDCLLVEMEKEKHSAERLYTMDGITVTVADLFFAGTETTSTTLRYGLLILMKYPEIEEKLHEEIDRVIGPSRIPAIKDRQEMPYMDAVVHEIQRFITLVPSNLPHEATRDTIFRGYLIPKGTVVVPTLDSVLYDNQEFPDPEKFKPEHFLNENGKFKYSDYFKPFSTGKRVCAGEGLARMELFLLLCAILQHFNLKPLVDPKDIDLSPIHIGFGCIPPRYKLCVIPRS
- Stated conditions: bti-tn-5b1-4

{"Molecular string": "O=C(O)CCCc1ccc(N(CCCl)CCCl)cc1", "Ki": "Not Active"}
{"Molecular string": "COc1cc2c3cc1Oc1cc(ccc1O)C[C@@H]1c4c(cc(OC)c(O)c4Oc4ccc(cc4)C[C@@H]3N(C)CC2)CC[N+]1(C)C.[Cl-]", "Ki": "Not Active"}
{"Molecular string": "CC(=O)O[C@@]12CO[C@@H]1C[C@H](O)[C@@]1(C)C(=O)[C@H](O)C3=C(C)[C@@H](OC(=O)[C@H](O)[C@@H](NC(=O)OC(C)(C)C)c4ccccc4)C[C@@](O)([C@@H](OC(=O)c4ccccc4)[C@H]21)C3(C)C.O.O.O", "Ki": "Not Active"}
